Target: β1-AR (Mus musculus, UniProt P34971)
Sequence (P34971 whole entry): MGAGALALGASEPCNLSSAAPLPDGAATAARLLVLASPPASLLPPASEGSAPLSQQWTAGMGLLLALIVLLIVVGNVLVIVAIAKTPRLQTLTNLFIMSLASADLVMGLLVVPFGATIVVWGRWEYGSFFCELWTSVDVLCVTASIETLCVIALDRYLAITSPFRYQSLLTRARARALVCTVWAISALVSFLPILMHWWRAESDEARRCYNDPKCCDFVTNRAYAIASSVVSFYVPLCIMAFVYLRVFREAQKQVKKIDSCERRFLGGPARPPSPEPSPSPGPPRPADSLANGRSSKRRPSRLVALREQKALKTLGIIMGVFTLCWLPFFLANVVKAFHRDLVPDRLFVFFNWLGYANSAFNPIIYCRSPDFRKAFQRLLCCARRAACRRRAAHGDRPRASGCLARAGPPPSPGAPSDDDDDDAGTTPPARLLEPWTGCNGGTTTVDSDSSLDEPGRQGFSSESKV
RECORDED_ENDPOINT: Ki (nM)
# output: bare number, implied unit nM

Q) Report Ki on β1-AR (Mus musculus, UniProt P34971) for this entry: Cc1ccc(OCC(O)C(C)NC(C)C)c2c1CCC2 (stereo not shown)
A) 390

Measured values drawn from patent US6436908B1 for this set.
